Source of measurements: PubChem BioAssay

PROTOCOL SUMMARY: A549 lung cancer cell viability effects, profiling panel, resazurin fluorescence, 24 h, PK04 Diversity Set (AID 1171); further: test concentration not given here
COND: higher = more signal, called active from +8 up or from −8 down
The source made the active and inactive calls.
RECORDED ENDPOINT: z-score

Query block: Quick check: z-score of COC(=O)[C@@]1(CCS(=O)(=O)c2ccccc2)N=C(c2ccc(OCCCO)cc2)O[C@H]1c1ccccc1N=[N+]=[N-] ?
Result block: -2.02 (inactive)

Query block: # lookup: z-score of CC(C)C[C@H]1NC(=O)[C@H](Cc2ccccc2)NC(=O)[C@@]23C(=O)N[C@@H](Cc4ccccc4)C2[C@H](C)[C@@]2(C)O[C@H]2C3/C=C/C/C=C\CNC1=O (stereo partly specified)
Result block: 0.395 (inactive)

Query block: // returns reported z-score for input CN1C(=O)[C@]2(CCS(=O)(=O)c3ccccc3)N=C(c3ccc(OCCCO)cc3)O[C@@H]2c2ccccc21
Result block: -0.015 (inactive)

Query block: I am curious: what z-score value has been reported for CN1C(=O)[C@]2(CCC(=O)OC(C)(C)C)N=C(c3ccc(OCCCO)cc3)O[C@@H]2c2ccccc21 ?
Result block: -0.877 (inactive)

Query block: Find the recorded z-score belonging to Cc1ccccc1C(O)C1C=CC2C(=O)N(c3ccccc3)C(=O)C2N1Nc1ccccc1F (stereo unspecified) and report it.
Result block: -0.425 (inactive)

Query block: Record request: z-score value, item C=C(COC)C(=O)CC[C@@H](OC(=O)c1cccnc1)c1cccc(OCCO)c1
Result block: 0.9 (inactive)

Query block: Return reported z-score; argument: O=C1c2ccccc2[C@](Cc2ccccc2I)(C(=O)O)[C@H](c2ccc(CO)cc2)N1Cc1ccccc1
Result block: -1.45 (inactive)

Query block: z-score lookup needed for CCCCC=C[C@@H](NC(=O)c1ccc(C(F)(F)F)cc1)c1ccccc1 , thanks.
Result block: 2.14 (inactive)

Query block: Given the compound C/C=C/CN(C(=O)C#Cc1ccccc1)[C@H](CO[Si](C)(C)C(C)(C)C)c1ccccc1 , what is its reported z-score?
Result block: 0.365 (inactive)

Query block: Can you share its z-score? I mean this compound: C=CCC(OC(C)=O)[C@@H]1[C@@H](N(Cc2ccc(-c3cccc(C(F)(F)F)c3)o2)C(=O)Cc2ccc(F)cc2)c2cc(OCCCO)ccc2N1C(=O)c1ccc2ccccc2n1 (stereo partly specified)
Result block: 0.14 (inactive)

Query block: So what's the measured z-score for this one? C=CC[C@@]1(C(=O)N(C)C)N=C(c2ccc(OCCCO)cc2)O[C@@H]1c1ccccc1
Result block: 0.79 (inactive)

Query block: Could you tell me which z-score is on file for CC(=O)c1ccc(C(O)C2C=CC3C(=O)NC(=O)C3N2Nc2ccc(Cl)cc2Cl)cc1 (stereo unspecified) ?
Result block: -0.743 (inactive)

Query block: Given the compound CCCCN1CC=CC23O[C@@H]4C=CCOC(=O)[C@@H]4[C@H]2C(=O)N(C(CO)C(C)C)[C@@H]3C1=O (stereo partly specified) , what is its reported z-score?
Result block: -0.519 (inactive)

Query block: Consider the compound CC#CCO[Si](C#CCCCCCC)(C(C)C)C(C)C and give its measured z-score.
Result block: 0.518 (inactive)

Query block: Please report the recorded z-score for C=C(CCCC)C(=O)CC[C@H](OC(=O)c1cccnc1)c1ccc(CO)o1 .
Result block: -0.0291 (inactive)

Query block: Dear colleague, I am looking for the recorded z-score of the following compound: NC(=O)NCC#Cc1ccc2c(c1)[C@]1(C(=O)N2)[C@H](C(=O)Nc2nc3ccccc3s2)[C@H]2C(=O)O[C@H](c3ccccc3)[C@H](c3ccccc3)N2[C@@H]1c1ccc(OCCO)cc1
Result block: 0.767 (inactive)

Query block: Which z-score value is on record for C=CCC(OC(C)=O)[C@@H]1[C@@H](N(Cc2ccc(-c3ccccc3)cc2)C(=O)c2ccc(C)cc2)c2cc(OCCCO)ccc2N1C(=O)c1ccc2ccccc2c1 (stereo partly specified) ?
Result block: 0.864 (inactive)

Query block: Fill blank: measured z-score of the compound CC(C)CNC(=O)[C@@]1(C)c2ccccc2C(=O)N(Cc2cc(F)cc(C(F)(F)F)c2)[C@H]1c1ccc(CO)cc1 is ____.
Result block: 0.906 (inactive)

Query block: Please report the recorded z-score for CC(C)=CCN(C(=O)C#Cc1ccccc1)[C@H](CO)c1ccccc1 .
Result block: -2.45 (inactive)

Query block: Given the compound CCC[C@@H]1[C@@H](Sc2ccccc2)[C@@H](C(=O)O)[C@H](c2ccc(C)cc2)N1S(=O)(=O)c1ccc(C)cc1 , what is its reported z-score?
Result block: -0.856 (inactive)

Query block: Bench note: what z-score did CC(C)CNC(=O)[C@@H]1c2ccccc2C(=O)N(Cc2ccccc2Cl)[C@H]1c1ccc(CO)cc1 show?
Result block: 0.914 (inactive)

Query block: # get_value(readout='z-score', item= C=C(COC)/C(=C/C[C@H](OC(=O)c1ccncc1)c1ccc(OCCO)cc1)c1cc(C(=O)OC)ccc1OC )
Result block: 1.29 (inactive)

Query block: Look at this compound and give its reported z-score. CN(C)C(=O)[C@]1(Cc2ccccc2)N=C(c2ccc(OCCCO)cc2)O[C@@H]1c1ccccc1
Result block: 0.747 (inactive)

Query block: Would you mind telling me what z-score value was observed for COC(=O)C1(CC(C)C)C=C2C(=C(C(C)C)C(=O)C2C)CN1 (stereo unspecified) ?
Result block: -0.697 (inactive)

Query block: // returns reported z-score for input COCCCN1C(=O)[C@@]2(Cc3ccccc31)c1ccccc1C(=O)N(Cc1ccccc1OC)[C@H]2c1ccc(CO)cc1
Result block: -0.458 (inactive)

Query block: Could you share which z-score value was measured for CCC(CC)C(O)C1C=CC2C(=O)N(C)C(=O)C2N1N1CCCCC1 (stereo unspecified) ?
Result block: 0.0051 (inactive)

Query block: Can you look up the measured z-score of O=C1C2C=CC(C(O)c3ccc([N+](=O)[O-])cc3)N(Nc3ccccc3)C2C(=O)N1c1ccccc1 (stereo unspecified) for me?
Result block: -0.0448 (inactive)

Query block: Entry C=CCC(OC(C)=O)[C@@H]1[C@@H](N(Cc2cc3ccccc3o2)C(=O)Cc2ccc(OC)cc2)c2cc(OCCCO)ccc2N1C(=O)Cc1ccc2ccccc2c1 (stereo partly specified) : reported z-score = ?
Result block: -1.16 (inactive)

Query block: Record request: z-score value, item COCCOC(=O)N1C(=O)[C@@]2(c3cc(C#CCNC(N)=O)ccc31)[C@H](C(=O)NC[C@H](O)c1ccccc1)[C@H]1C(=O)O[C@H](c3ccccc3)[C@H](c3ccccc3)N1[C@@H]2c1ccc(OCCO)cc1
Result block: 0.637 (inactive)

Query block: So what's the measured z-score for this one? CC1CC/C=C\[C@H]2OC34C=CCN(CCN5CCOCC5)C(=O)[C@H]3N(CCCCCCO)C(=O)[C@@H]4C2C(=O)O1 (stereo partly specified)
Result block: -0.116 (inactive)

Query block: Consider the compound shown here: C=CCC(OC(C)=O)[C@@H]1[C@@H](N(Cc2ccc(-c3cccc(C(F)(F)F)c3)o2)C(=O)Cc2ccc(OC)cc2)c2cc(OCCCO)ccc2N1C(=O)c1ccc2ccccc2n1 (stereo partly specified) What is its recorded z-score?
Result block: -1.25 (inactive)
